Where do these numbers come from? They come from paper PMC9965906.

# Target: SARS-CoV-2 NSP3 Mac1 (Severe acute respiratory syndrome coronavirus 2, UniProt P0DTD1)
# Method: biochemical
# Format: binding
# Condition: MIDAS hit compounds and analogues, 125 µM; read-out: Inhibition at top concentration of 125 µM (%)
inhibition at 125 µM values for the compounds below.
Numeric answer only, unit % assumed.

[
  {
    "Compound": "Cn1ccc2c(-c3ncccc3C(=O)N3CCCCC3)ccnc21",
    "Target": "SARS-CoV-2 NSP3 Mac1 (Severe acute respiratory syndrome coronavirus 2, UniProt P0DTD1)",
    "Unit spec": "%",
    "inhibition at 125 µM": 79.4
  }
]

Name the recorded inhibition at 125 µM for COc1ccc(-c2cc(C(=O)O)c3cc(NC(C)=O)ccc3n2)cc1 . 81.3

Also check CCn1ncc2c(C(=O)N3CCC(C(O)c4ccccc4)CC3)cc(-c3cccs3)nc21 (stereo not drawn) 7

Also check COc1ccc(-c2cc(C(=O)O)c3c(C)cc(C)cc3n2)cc1 61.2

Also check Nc1c(C(=O)NC2CC2)sc2nc(-c3ccccn3)ccc12 79.6

Also check Cn1ccc2c(-c3ccc(Cn4ccnc4)cn3)ccnc21 81.1

Also check CNC(=O)c1ccc(C(=O)N2CCC(c3c[nH]c4ncccc34)CC2)cn1 9.3

Also check CC(C)n1ncc2c(C(=O)Nc3ccncc3)cc(-c3cccs3)nc21 19.4

Also check CCn1ncc2c(C(=O)N(Cc3ccccn3)C(C)C)cc(-c3cccs3)nc21 36.8

====

# Target: SARS-CoV-2 NSP3 Mac1 (Severe acute respiratory syndrome coronavirus 2)
# Method: biochemical
# Type: binding
# Condition: MIDAS hit compounds and analogues, 125 µM; read-out: Inhibition at top concentration of 125 µM (%)
The label depends only on inhibition at 125 µM: 1 (yes) if it is at least 20%, 0 (no) if it is smaller.

[
  {
    "Compound": "CC(C)n1ncc2c(C(=O)N3CCC(C)(O)CC3)cc(-c3cccs3)nc21",
    "Assigned class": "1 (yes)"
  },
  {
    "Compound": "CCn1ncc2c(C(=O)NCC(=O)N(C)C)cc(-c3cccs3)nc21",
    "Assigned class": "1 (yes)"
  },
  {
    "Compound": "CC1c2cccn2CCN1C(=O)c1cc(-c2cccs2)nc2c1cnn2C(C)C (centres unmarked)",
    "Assigned class": "0 (no)"
  }
]

# bool: inhibition at 125 µM of COc1ccc(-c2cc(C(=O)Nc3cccc(OCC(N)=O)c3)c3ccccc3n2)cc1 >= 20% 0 (no)

====

# Target: SARS-CoV-2 NSP3 Mac1 (Severe acute respiratory syndrome coronavirus 2, UniProt P0DTD1)
# Method: biochemical
# Type: binding
# Condition: BioAscent virtual screening hit compounds, 25 µM, duplicate
Assay metric: inhibition at 25 µM (%)
Numeric answer only, unit % assumed.

[
  {
    "Compound": "COc1cc2c(cc1/C=C/C(=O)O)OC(C)C2 (stereo not shown)",
    "inhibition at 25 µM, %": 63.7
  },
  {
    "Compound": "Nc1ccc2oc(-c3cccnc3)nc2c1 [BCC0105824, Nc1ccc2oc(-c3cccnc3)nc2c1]",
    "inhibition at 25 µM, %": 30.1
  },
  {
    "Compound": "Oc1cc2ccccc2nc1-c1ccccc1",
    "inhibition at 25 µM, %": 38.6
  }
]

Moving on to the next compound.
Name the recorded inhibition at 25 µM for CC(=O)c1ccc(-c2ccc(N)cc2)o1 [BCC0119417, CC(=O)c1ccc(-c2ccc(N)cc2)o1] . 59.3
